# STUDY_SYSTEM: human MCH-2R (human, UniProt Q969V1 1-340)
# Sequence (Q969V1 whole entry): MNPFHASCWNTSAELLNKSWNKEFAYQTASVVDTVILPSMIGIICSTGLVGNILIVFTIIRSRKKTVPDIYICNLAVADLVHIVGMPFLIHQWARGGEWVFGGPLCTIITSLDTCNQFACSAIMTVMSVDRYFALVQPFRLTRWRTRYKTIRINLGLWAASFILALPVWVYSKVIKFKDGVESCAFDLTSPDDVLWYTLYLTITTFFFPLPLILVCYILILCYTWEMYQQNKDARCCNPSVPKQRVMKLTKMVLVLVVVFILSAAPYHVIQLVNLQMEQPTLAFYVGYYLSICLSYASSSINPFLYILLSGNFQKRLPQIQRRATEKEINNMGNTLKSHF
# ASSAY_EXPLANATION: cell-based or functional assay
RECORDED_METRIC: Activation %, aequorin bioluminescence

• XCXLNRVYRPC (HELM PEPTIDE1{[ac].[dR].C.[Nle].L.N.R.V.Y.R.P.C.[am]}$PEPTIDE1,PEPTIDE1,3:R3-12:R3$$$V2.0; SMILES CCCC[C@@H]1NC(=O)[C@@H](NC(=O)[C@@H](CCCNC(=N)N)NC(C)=O)CSSC[C@@H](C(N)=O)NC(=O)[C@@H]2CCCN2C(=O)[C@H](CCCNC(=N)N)NC(=O)[C@H](Cc2ccc(O)cc2)NC(=O)[C@H](C(C)C)NC(=O)[C@H](CCCNC(=N)N)NC(=O)[C@H](CC(N)=O)NC(=O)[C@H](CC(C)C)NC1=O) [SEQ. ID. NO. 31 (D-Arg^6, Nle^8, Asn^10 analog of Ac-hMCH(6-16)-NH2)] = 23%
